- Tested on: A549
- assay info: Euclidean distance of Cell Painting phenotypic profile (signed KS, 77 features) to DMSO centroid (dimensionless distance); higher = stronger phenotypic change vs DMSO (phenoactivity)
- test settings: 48 h; 5 or 10 uM (library dependent)
Where a name gives a salt, the structure may show the parent alone.
measured parameter: Euclidean distance
No unit in the answer, please; the number alone is enough.

Examples from the recorded data:
molecule	Euclidean distance
N[C@@H](Cc1ccc(N(CCCl)CCCl)cc1)C(=O)O [Melphalan]	2.76
C[C@]12CC[C@H]3[C@@H](CC[C@@]45O[C@@H]4C(O)=C(C#N)C[C@]35C)[C@@H]1CC[C@@H]2O [Trilostane]	1.35
CC(C)(O)C(Cl)(Cl)Cl [Chlorobutanol]	1.04
C/C=C(\C)C(=O)N[C@@H](c1ccccc1)[C@@H](O)C(=O)O[C@H]1C[C@@]2(O)[C@@H](OC(=O)c3ccccc3)[C@@H]3[C@]4(OC(C)=O)CO[C@@H]4C[C@H](O)[C@@]3(C)C(=O)[C@H](OC(C)=O)C(=C1C)C2(C)C [Cephalomannine]	3.24
CC(=O)OC12COC1CC(O)C1(C)C(=O)C(O)C3=C(C)C(O)CC(O)(C(OC(=O)c4ccccc4)C21)C3(C)C (configuration not stated) [10-Deacetylbaccatin-III]	1.11
CC(=O)Nc1ccc(OC[C@](C)(O)C(=O)Nc2ccc([N+](=O)[O-])c(C(F)(F)F)c2)cc1 [Andarine]	1.78

-- ask Tell me the measured Euclidean distance of Cc1ncc(CNC(=O)N(CCCl)N=O)c(N)n1 [Nimustine Hydrochloride] , please.
-- reply 0.894

----------
# Euclidean distance values compiled below
- Test system: OVCAR4
- assay info: Euclidean distance of Cell Painting phenotypic profile (signed KS, 77 features) to DMSO centroid (dimensionless distance); higher = stronger phenotypic change vs DMSO (phenoactivity)
- test settings: 48 h; 5 or 10 uM (library dependent)
Counter-ions that a name gives are not always drawn.
No unit in the answer, please; the number alone is enough.

> print(dat)
                                   compound  measured.parameter  value.observed
1  C[C@@]12N[C@@H](Cc3ccccc31)c1ccccc12 [(-)-MK 801 Maleate]  Euclidean distance            4.43
2  CC(CCc1ccccc1)NC(C)C(O)c1ccc(O)cc1 (stereo not drawn) [Nylidrin Hydrochloride]  Euclidean distance            1.34
3  C[N+]1(C)[C@@H]2C[C@@H](OC(=O)[C@H](CO)c3ccccc3)C[C@H]1[C@@H]1O[C@@H]12  Euclidean distance            1.04
4                   O=[N+]([O-])C(Br)(CO)CO  Euclidean distance            1.59
5                    c1ccc2c(c1)Nc1ccccc1S2  Euclidean distance           0.881
6  COC1=C[C@@H]2[C@@H]3Cc4ccc(OC)c(O)c4[C@]2(CCN3C)CC1=O [Sinomenine hydrochloride]  Euclidean distance           0.824
7  N#C[C@H](O[C@@H]1O[C@H](C(=O)O)[C@@H](O)[C@H](O)[C@H]1O)c1ccccc1  Euclidean distance            1.45

-- ask Tell me the measured Euclidean distance of CC(C)[C@H](N)C(=O)N1CCC[C@H]1B(O)O , please.
-- reply 0.712

----------
# Euclidean distance values compiled below
- System: HEPG2
- assay info: Euclidean distance of Cell Painting phenotypic profile (signed KS, 77 features) to DMSO centroid (dimensionless distance); higher = stronger phenotypic change vs DMSO (phenoactivity)
- test settings: 48 h; 5 or 10 uM (library dependent)
Counter-ions that a name gives are not always drawn.

molecule	assayed target	value observed
c1ccc2c(c1)Sc1ccccc1N2CC1CN2CCC1CC2 (centres undefined) [Mequitazine]	HEPG2	2.43
C[C@]12N[C@H](Cc3ccccc31)c1ccccc12 [MK-801 (Dizocilpine)]	HEPG2	1.41
CC(C)(O)C(Cl)(Cl)Cl [Chlorobutanol]	HEPG2	0.725
Cc1cc(C(C#N)c2ccc(Cl)cc2)c(Cl)cc1NC(=O)c1cc(I)cc(I)c1O (centres undefined) [Closantel]	HEPG2	0.749
O=C/C=C/c1ccccc1 [Cinnamaldehyde]	HEPG2	1.14
CC(=O)O[C@H]1C[C@@H]2CC[C@@H]3[C@H](CC[C@@]4(C)[C@H]3C[C@H]([N+]3(C)CCCCC3)[C@@H]4OC(C)=O)[C@@]2(C)C[C@@H]1[N+]1(C)CCCCC1 [Pancuronium dibromide]	HEPG2	0.518
COC(=O)C[C@](O)(CCC(C)(C)O)C(=O)O[C@@H]1C(OC)=C[C@]23CCCN2CCc2cc4c(cc2[C@H]13)OCO4 [Harringtonine]	HEPG2	3.46
CN(C)C(=O)Oc1cc(OC(=O)N(C)C)cc(C(O)CNC(C)(C)C)c1 (centres undefined) [Bambuterol HCl]	HEPG2	0.521

-- ask Tell me the measured Euclidean distance of CN(C)NC(=O)CCC(=O)O [Daminozide] , please.
-- reply 0.742

----------
- System: FB
- assay info: Euclidean distance of Cell Painting phenotypic profile (signed KS, 77 features) to DMSO centroid (dimensionless distance); higher = stronger phenotypic change vs DMSO (phenoactivity)
- test settings: 48 h; 5 or 10 uM (library dependent)
Where a name gives a salt, the structure may show the parent alone.
The label depends only on Euclidean distance: TRUE if it is at least 1, FALSE if it is smaller.

These solved cases illustrate the format of a correct answer.
compound	label value
CC1(C)C(C=C(Cl)Cl)C1C(=O)OCc1cccc(Oc2ccccc2)c1 (centres undefined)	FALSE
CC1(C)CC(O)CC(C)(C)N1[O]	TRUE
Oc1cc(Cl)ccc1Oc1ccc(Cl)cc1Cl	TRUE
CN(C)NC(=O)CCC(=O)O [Daminozide]	FALSE
CNCC(=O)c1ccc(O)c(O)c1 [Adrenalone HCl]	TRUE
COC[C@H]1OC(=O)c2coc3c2[C@@]1(C)C1=C(C3=O)[C@@H]2CCC(=O)[C@@]2(C)C[C@H]1OC(C)=O	TRUE
CCN1CCN(C(=O)Cc2ccc(Nc3ncc(F)c(Nc4ccc(C(=O)Nc5ccccc5Cl)cc4)n3)cc2)CC1	TRUE
O=c1[nH]c2ccccc2n1C1CCN(CCCC(c2ccc(F)cc2)c2ccc(F)cc2)CC1 [Pimozide]	TRUE
CCN1C[C@]2(OC(=O)c3ccccc3NC(C)=O)CC[C@H](OC)[C@@]34[C@@H]2C[C@@H]([C@@H]13)[C@@]1(O)C[C@H](OC)[C@H]2C[C@@H]4[C@]1(O)[C@H]2OC	TRUE
Cc1cccc(C)c1NC(=O)CN1CCCC1=O	FALSE

-- ask Decide: Euclidean distance of O=C(O[C@H]1C[N+]2(CCCOc3ccccc3)CCC1CC2)C(O)(c1cccs1)c1cccs1 [Aclidinium Bromide] >= 1?
-- reply FALSE

----------
- System: DU145
- assay info: Euclidean distance of Cell Painting phenotypic profile (signed KS, 77 features) to DMSO centroid (dimensionless distance); higher = stronger phenotypic change vs DMSO (phenoactivity)
- test settings: 48 h; 5 or 10 uM (library dependent)
Counter-ions that a name gives are not always drawn.
// thresholds for Euclidean distance classes: lo: < 0.8; med: ≥ 0.8 and < 1; hi: ≥ 1

These solved cases illustrate the format of a correct answer.
molecule	label value
C[C@]12CC[C@@H]3c4ccc(OC(=O)N(CCCl)CCCl)cc4CC[C@H]3[C@@H]1CC[C@@H]2OP(=O)(O)O [Estramustine phosphate sodium]	lo
NCC(O)c1ccc(O)cc1 (centres undefined) [(+.-)-Octopamine HCl]	med
CC(Cc1ccc(O)cc1)NCC(O)c1cc(O)cc(O)c1 (centres undefined) [Fenoterol hydrobromide]	lo
COc1cc(OC)c(OC)cc1C=O	lo
C/C(=C\c1csc(C)n1)[C@@H]1C[C@@H]2O[C@]2(C)CCC[C@H](C)[C@H](O)[C@@H](C)C(=O)C(C)(C)[C@@H](O)CC(=O)O1	hi
C=CCN1CC[C@]23c4c5ccc(O)c4O[C@H]2C(=O)CC[C@@]3(O)[C@H]1C5 [Naloxone HCl]	lo

For the next question, use this molecule.
-- ask The entry to classify is OC(c1ccccc1)(c1ccccc1)C1CCNCC1 ; which class holds it?
-- reply hi

----------
- System: A549
- assay info: Euclidean distance of Cell Painting phenotypic profile (signed KS, 77 features) to DMSO centroid (dimensionless distance); higher = stronger phenotypic change vs DMSO (phenoactivity)
- test settings: 48 h; 5 or 10 uM (library dependent)
Where a name gives a salt, the structure may show the parent alone.
The label depends only on Euclidean distance: Condition met if it is at least 0.9, Condition not met if it is smaller.

These solved cases illustrate the format of a correct answer.
> print(dat)
                                   compound        label.value
1  CC(Cc1ccc(O)cc1)NCC(O)c1cc(O)cc(O)c1 (centres undefined) [Fenoterol hydrobromide]  Condition not met
2          CC(C)=CCOc1c2occc2cc2ccc(=O)oc12  Condition not met

-- ask Decide: Euclidean distance of O=c1[nH]c2ccccc2n1C1CCN(CCCC(c2ccc(F)cc2)c2ccc(F)cc2)CC1 [Pimozide] >= 0.9?
-- reply Condition met

-- ask Decide: Euclidean distance of O=[N+]([O-])O[C@@H]1CO[C@H]2[C@@H]1OC[C@@H]2O [Isosorbide Mononitrate] >= 0.9?
-- reply Condition met

-- ask Decide: Euclidean distance of O=C(CC1NCCCC1O)Cn1cnc2cc(Br)c(Cl)cc2c1=O (centres undefined) >= 0.9?
-- reply Condition met

-- ask Decide: Euclidean distance of Cl[TeH]1(Cl)(Cl)OCCO1.N >= 0.9?
-- reply Condition met

-- ask Decide: Euclidean distance of CC[C@H]1CN2CC[C@H]1C[C@@H]2[C@@H](O)c1ccnc2ccc(OC)cc12 [Hydroquinidine] >= 0.9?
-- reply Condition not met

-- ask Decide: Euclidean distance of COc1ccc(OC)c(C(O)C(C)N)c1 (centres undefined) [Methoxamine HCl] >= 0.9?
-- reply Condition not met

-- ask Decide: Euclidean distance of C[C@]12CC[C@H](O)CC1=CC[C@@H]1[C@@H]2CC[C@]2(C)C(=O)CC[C@@H]12 [Dehydroepiandrosterone (DHEA)] >= 0.9?
-- reply Condition not met

-- ask Decide: Euclidean distance of CCN1CCN(C(=O)Cc2ccc(Nc3ncc(F)c(Nc4ccc(C(=O)Nc5ccccc5Cl)cc4)n3)cc2)CC1 >= 0.9?
-- reply Condition met

-- ask Decide: Euclidean distance of CCC1(c2cccc(O)c2)CCCCN(C)C1 (centres undefined) [Meptazinol HCl] >= 0.9?
-- reply Condition met

-- ask Decide: Euclidean distance of C[C@]12N[C@H](Cc3ccccc31)c1ccccc12 >= 0.9?
-- reply Condition not met

-- ask Decide: Euclidean distance of N#C[C@H](O[C@@H]1O[C@H](C(=O)O)[C@@H](O)[C@H](O)[C@H]1O)c1ccccc1 >= 0.9?
-- reply Condition not met

-- ask Decide: Euclidean distance of C[N+]12CCC(CC1)C(OC(=O)C(O)(c1ccccc1)c1ccccc1)C2 (centres undefined) [Clidinium Bromide] >= 0.9?
-- reply Condition not met

-- ask Decide: Euclidean distance of COc1cc(-n2c(=S)[nH]c3ccccc3c2=O)c(Cl)cc1Cl >= 0.9?
-- reply Condition met

-- ask Decide: Euclidean distance of C/C(=C\c1csc(C)n1)[C@@H]1C[C@@H]2O[C@]2(C)CCC[C@H](C)[C@H](O)[C@@H](C)C(=O)C(C)(C)[C@@H](O)CC(=O)O1 >= 0.9?
-- reply Condition met

-- ask Decide: Euclidean distance of C[C@]12CC[C@H](O)C[C@@H]1CC[C@@H]1[C@@H]2CC[C@]2(C)C(=O)CC[C@@H]12 [Epiandrosterone] >= 0.9?
-- reply Condition met

-- ask Decide: Euclidean distance of CN1CCC(C(=O)c2cccc(NC(=O)c3c(F)cc(F)cc3F)n2)CC1 [Lasmiditan succinate] >= 0.9?
-- reply Condition not met
